Observed IC50, system MraY (Hydrogenivirga sp.) (Hydrogenivirga sp. 128-5-R1-1).

compound	experimentalTarget	IC50
CO[C@H]1[C@@H](O)[C@H](n2ccc(=O)[nH]c2=O)O[C@@H]1[C@@H](O[C@H]1OC(C(=O)N[C@H]2CCCCNC2=O)=C[C@H](O)[C@@H]1O)C(N)=O	MraY (Hydrogenivirga sp.) (Hydrogenivirga sp. 128-5-R1-1)	0.13 µM
CO[C@H]1[C@@H](OC)[C@H](n2ccc(=O)[nH]c2=O)O[C@@H]1[C@@H](O[C@H]1OC(C(=O)N[C@H]2CCCCNC2=O)=C[C@H](O)[C@@H]1O)C(N)=O	MraY (Hydrogenivirga sp.) (Hydrogenivirga sp. 128-5-R1-1)	> 50 µM
NC(=O)[C@H](O[C@H]1OC(C(=O)N[C@H]2CCCCNC2=O)=C[C@H](O)[C@@H]1O)[C@H]1O[C@@H](n2ccc(=O)[nH]c2=O)C(O)C1O (stereo partly drawn)	MraY (Hydrogenivirga sp.) (Hydrogenivirga sp. 128-5-R1-1)	> 50 µM

====

System: HPNE
Assay: MTT cytotoxicity assay
Type: cell-based
Settings: MTT, 72 h
pIC50: −log10 of the molar value.

lineNotation	pIC50
CO[C@H]1[C@@H](OC)[C@H](n2ccc(=O)[nH]c2=O)O[C@@H]1[C@@H](O[C@H]1OC(C(=O)N[C@H]2CCCCNC2=O)=C[C@H](O)[C@@H]1O)C(N)=O	< 4.30

====

Tested on: L1210
Assay: MTT cytotoxicity assay
Type: cell-based
Conditions: MTT, 72 h
measure: IC50

lineNotation	experimentalTarget	measure	result
CO[C@H]1[C@@H](OC)[C@H](n2ccc(=O)[nH]c2=O)O[C@@H]1[C@@H](O[C@H]1OC(C(=O)N[C@H]2CCCCNC2=O)=C[C@H](O)[C@@H]1O)C(N)=O	L1210	IC50	> 50 µM

====

Tested on: DLD-1
Test: MTT cytotoxicity assay
Format: cell-based
Conditions: Homo sapiens, DLD-1, 72 h
pIC50: −log10 of the molar value.
Listed next: entries and their corresponding pIC50.
measure: pIC50

lineNotation	experimentalTarget	measure	censoringOperator	result
CO[C@H]1[C@@H](O)[C@H](n2ccc(=O)[nH]c2=O)O[C@@H]1[C@@H](O[C@H]1OC(C(=O)N[C@H]2CCCCNC2=O)=C[C@H](O)[C@@H]1O)C(N)=O	DLD-1	pIC50	<	4.30
CO[C@@H]1[C@H](O)[C@@H]([C@@H](O[C@H]2OC(C(=O)NCc3ccc(N4CCC(Oc5ccc(OC(F)(F)F)cc5)CC4)cc3)=C[C@H](O)[C@@H]2O)C(N)=O)O[C@H]1n1ccc(=O)[nH]c1=O	DLD-1	pIC50	=	4.46

====

Tested on: SiHa
Assay: MTT cytotoxicity assay
Format: cell-based
Settings: Homo sapiens, SiHa, 72 h
pIC50: −log10 of the molar value.

lineNotation	experimentalTarget	censoringOperator	pIC50
CO[C@@H]1[C@H](O)[C@@H]([C@@H](O[C@H]2OC(C(=O)NCc3ccc(N4CCC(Oc5ccc(OC(F)(F)F)cc5)CC4)cc3)=C[C@H](O)[C@@H]2O)C(N)=O)O[C@H]1n1ccc(=O)[nH]c1=O	SiHa	=	4.60
CO[C@H]1[C@@H](O)[C@H](n2ccc(=O)[nH]c2=O)O[C@@H]1[C@@H](O[C@H]1OC(C(=O)N[C@H]2CCCCNC2=O)=C[C@H](O)[C@@H]1O)C(N)=O	SiHa	<	4.30
